System: HL60
Assay: MTT assay, antiproliferative activity against HL60 cells
Type: cell-based
Settings: Homo sapiens, HL-60, 72 h, mean of at least two determinations
quantity_kind: IC50 (nM)

a. COc1ccc(S(=O)(=O)c2nc3ccccc3nc2N2CCC(C(N)=O)CC2)cc1
b. CC(=O)N1CCN(c2nc3ccccc3nc2S(=O)(=O)c2ccc(Br)cc2)CC1
c. O=c1cc(N2CCOCC2)oc2c(-c3ccccc3)cccc12 [LY294002, reference compound]
Hi! Can you put these in order of IC50, lowest number first? Return value: ordered labels per request. b, a, c

---

Test system: PC3
Experiment: MTT assay, antiproliferative activity against PC3 cells
Format: cell-based
Details: Homo sapiens, PC-3, 72 h, mean of at least two determinations
quantity_kind: IC50 (µM)

compound="Cc1ccc(S(=O)(=O)c2nc3ccccc3nc2N2CCC(C(N)=O)CC2)cc1 [Compound 5]" target_or_system=PC3 result_number=2.28

I. CC(=O)N1CCN(c2nc3ccccc3nc2S(=O)(=O)c2ccc(Br)cc2)CC1 [Compound 12]
II. O=S(=O)(c1ccccc1)c1nc2ccccc2nc1N1CCOCC1 [WR1, reference compound]
Smaller IC50 value? Options are I and II Respond with the label that goes with your answer. I

---

Test system: HCT116
Assay: MTT assay, antiproliferative activity against HCT116 cells
Assay type: cell-based
Settings: Homo sapiens, HCT-116, 72 h, mean of at least two determinations
quantity_kind: IC50 (µM)

Guide cases for IC50, answers given:
molecular_string=O=S(=O)(c1ccc(F)cc1)c1nc2ccccc2nc1N1CCN(CCCN2CCOCC2)CC1 result_number=0.93
molecular_string=CC(=O)N1CCN(c2nc3ccccc3nc2S(=O)(=O)c2ccc(F)cc2)CC1 result_number=4.34

A. Cc1ccc(S(=O)(=O)N2CCN(c3nc4ccccc4nc3S(=O)(=O)c3ccc(Br)cc3)CC2)cc1
B. COc1ccc(S(=O)(=O)c2nc3ccccc3nc2N2CCN(C(=O)c3ccc(Cl)cc3)CC2)cc1
Given A and B , report the one with the higher recorded IC50. Response format: the label of the selected entry. B

---

Measured melting point of individual entries

compound=CS(=O)(=O)N1CCN(c2nc3ccccc3nc2S(=O)(=O)c2ccccc2)CC1 quantity_kind="melting point" result="182 to 185 °C"
compound=CS(=O)(=O)N1CCN(c2nc3ccccc3nc2S(=O)(=O)c2ccc(F)cc2)CC1 quantity_kind="melting point" result="206 to 207 °C"
compound=CN1CCN(c2nc3ccccc3nc2S(=O)(=O)c2ccccc2)CC1 quantity_kind="melting point" result="154 to 157 °C"
compound=COc1ccc(S(=O)(=O)c2nc3ccccc3nc2N2CCN(C(=O)c3ccccc3)CC2)cc1 quantity_kind="melting point" result="166 to 169 °C"
compound=COc1ccc(S(=O)(=O)c2nc3ccccc3nc2N2CCNCC2)cc1 quantity_kind="melting point" result="142 to 144 °C"
compound=Cc1ccc(S(=O)(=O)c2nc3ccccc3nc2N2CCN(C(=O)c3ccc(Cl)cc3)CC2)cc1 quantity_kind="melting point" result="188 to 190 °C"
compound=COc1ccc(S(=O)(=O)c2nc3ccccc3nc2N2CCN(C(C)=O)CC2)cc1 quantity_kind="melting point" result="160 to 162 °C"
compound=O=C(c1ccccc1)N1CCN(c2nc3ccccc3nc2S(=O)(=O)c2ccccc2)CC1 quantity_kind="melting point" result="224 to 226 °C"
compound=Cc1ccc(S(=O)(=O)c2nc3ccccc3nc2N2CCN(C(=O)c3ccccc3)CC2)cc1 quantity_kind="melting point" result="182 to 185 °C"
compound=COc1ccc(S(=O)(=O)c2nc3ccccc3nc2N2CCN(S(C)(=O)=O)CC2)cc1 quantity_kind="melting point" result="177 to 179 °C"

# lookup: melting point of Cc1ccc(S(=O)(=O)c2nc3ccccc3nc2N2CCNC(C)C2)cc1 (centres unmarked) 136 to 138 °C

Note, next up: "COc1ccc(S(=O)(=O)c2nc3ccccc3nc2N2CCN(S(=O)(=O)c3ccc(C)cc3)CC2)cc1" 172 to 175 °C

Proceed to "O=C(c1ccccc1)N1CCN(c2nc3ccccc3nc2S(=O)(=O)c2ccc(F)cc2)CC1" 200 to 202 °C

Also check "COc1ccc(S(=O)(=O)c2nc3ccccc3nc2N2CCC(C(N)=O)CC2)cc1" 185 to 187 °C

Continue with "COc1ccc(S(=O)(=O)c2nc3ccccc3nc2N2CCN(C(=O)c3ccc(Cl)cc3)CC2)cc1" 179 °C

And then "Cc1ccc(S(=O)(=O)c2nc3ccccc3nc2N2CCC(C(N)=O)CC2)cc1" , what is it? 200 to 203 °C

Similarly, "CC(=O)N1CCN(c2nc3ccccc3nc2S(=O)(=O)c2ccccc2)CC1" ? 144 to 146 °C

---

melting point overview

compound="CS(=O)(=O)N1CCN(c2nc3ccccc3nc2S(=O)(=O)c2ccc(Br)cc2)CC1 [Compound 42]" result="194 to 196 °C"
compound="Cc1ccc(S(=O)(=O)c2nc3ccccc3nc2N2CCN(C)CC2)cc1 [Compound 15]" result="127 to 130 °C"

Reported melting point for NC(=O)C1CCN(c2nc3ccccc3nc2S(=O)(=O)c2ccccc2)CC1 [Compound 4] : what is it? 170 to 174 °C

Request: NC(=O)C1CCN(c2nc3ccccc3nc2S(=O)(=O)c2ccc(F)cc2)CC1 [Compound 8] 198 to 202 °C

Continue with NC(=O)C1CCN(c2nc3ccccc3nc2S(=O)(=O)c2ccc(Br)cc2)CC1 [Compound 7] 209 to 210 °C

Queued: Cc1ccc(S(=O)(=O)c2nc3ccccc3nc2N2CCN(S(=O)(=O)c3ccc(C)cc3)CC2)cc1 [Compound 45] 174 to 175 °C

What about this compound? O=C(c1ccc(Cl)cc1)N1CCN(c2nc3ccccc3nc2S(=O)(=O)c2ccccc2)CC1 [Compound 34] 217 to 219 °C

Could you do the same for CC(=O)N1CCN(c2nc3ccccc3nc2S(=O)(=O)c2ccc(F)cc2)CC1 [Compound 13] , please? 108 to 112 °C

---

Test system: HCT116
Test: MTT assay, antiproliferative activity against HCT116 cells
Type: cell-based
Details: Homo sapiens, HCT-116, 72 h, mean of at least two determinations
Text: All synthesized target compounds were firstly tested for their antiproliferative activity against five human cancer cell lines, PC3, A549, HCT116, HL60, and KB, using MTT assay. Human prostate cancer PC3 cells, lung adenocarcinoma epithelial A549 cells, colon cancer HCT116 cells, promyelocytic leukemia HL60 cells and nasopharyngeal carcinoma KB cells were obtained from the cell bank of the Institute of Biochemistry and Cell Biology, Chinese Academy of Sciences (Shanghai, China). […]
quantity_kind: IC50 (nM)

Example results:
molecule="O=S(=O)(c1ccccc1)c1nc2ccccc2nc1N1CCOCC1 [WR1, reference compound]" quantity_kind=IC50 result_number=5350
molecule=COc1ccc(S(=O)(=O)c2nc3ccccc3nc2N2CCN(C)CC2)cc1 quantity_kind=IC50 result_number=2370
molecule=O=C(c1ccc(Cl)cc1)N1CCN(c2nc3ccccc3nc2S(=O)(=O)c2ccc(Br)cc2)CC1 quantity_kind=IC50 result_number=10600
molecule=CN1CCN(c2nc3ccccc3nc2S(=O)(=O)c2ccc(Br)cc2)CC1 quantity_kind=IC50 result_number=2310

I. CC(=O)N1CCN(c2nc3ccccc3nc2S(=O)(=O)c2ccc(C)cc2)CC1
II. COc1ccc(S(=O)(=O)c2nc3ccccc3nc2N2CCN(C(=O)c3ccccc3)CC2)cc1
III. O=S(=O)(c1ccc(Br)cc1)c1nc2ccccc2nc1N1CCNCC1
IV. CS(=O)(=O)N1CCN(c2nc3ccccc3nc2S(=O)(=O)c2ccc(F)cc2)CC1
List the 4 entries from lowest IC50 to highest IC50 value. Put the labels in the requested order and write them down. III, IV, I, II

---

Test system: A549
Assay: MTT assay, antiproliferative activity against A549 cells
Assay type: cell-based
Settings: Homo sapiens, 72 h, mean of at least two determinations
Excerpt: All synthesized target compounds were firstly tested for their antiproliferative activity against five human cancer cell lines, PC3, A549, HCT116, HL60, and KB, using MTT assay. Human prostate cancer PC3 cells, lung adenocarcinoma epithelial A549 cells, colon cancer HCT116 cells, promyelocytic leukemia HL60 cells and nasopharyngeal carcinoma KB cells were obtained from the cell bank of the Institute of Biochemistry and Cell Biology, Chinese Academy of Sciences (Shanghai, China). […]
quantity_kind: IC50 (µM)

compound="COc1ccc(S(=O)(=O)c2nc3ccccc3nc2N2CCNC(C)C2)cc1 (stereo not shown) [Compound 26]" result_number=1.65
compound="CS(=O)(=O)N1CCN(c2nc3ccccc3nc2S(=O)(=O)c2ccc(Br)cc2)CC1 [Compound 42]" result_number=1.32
compound="Cc1ccc(S(=O)(=O)c2nc3ccccc3nc2N2CCN(S(=O)(=O)c3ccc(C)cc3)CC2)cc1 [Compound 45]" result_number=49.5
compound="CC(=O)N1CCN(c2nc3ccccc3nc2S(=O)(=O)c2ccccc2)CC1 [Compound 9]" result_number=1.02
compound="CC1CN(c2nc3ccccc3nc2S(=O)(=O)c2ccc(F)cc2)CCN1 (stereo not shown) [Compound 28]" result_number=3.45
compound="Cc1ccc(S(=O)(=O)c2nc3ccccc3nc2N2CCC(C(N)=O)CC2)cc1 [Compound 5]" result_number=27.4
compound="O=C(c1ccc(Cl)cc1)N1CCN(c2nc3ccccc3nc2S(=O)(=O)c2ccccc2)CC1 [Compound 34]" result_number=3.86

P. O=S(=O)(c1ccccc1)c1nc2ccccc2nc1N1CCOCC1 [WR1, reference compound]
Q. O=C(c1ccccc1)N1CCN(c2nc3ccccc3nc2S(=O)(=O)c2ccc(Br)cc2)CC1 [Compound 32]
Could you tell me which of these two has the smaller IC50 figure? First: P Second: Q Your answer should be the label attached to the chosen record. Q
